- studySystem: Nuclear receptor subfamily 1 group I member 3 (Homo sapiens) (UniProt Q14994)
- Sequence (Q14994 whole entry, looked up): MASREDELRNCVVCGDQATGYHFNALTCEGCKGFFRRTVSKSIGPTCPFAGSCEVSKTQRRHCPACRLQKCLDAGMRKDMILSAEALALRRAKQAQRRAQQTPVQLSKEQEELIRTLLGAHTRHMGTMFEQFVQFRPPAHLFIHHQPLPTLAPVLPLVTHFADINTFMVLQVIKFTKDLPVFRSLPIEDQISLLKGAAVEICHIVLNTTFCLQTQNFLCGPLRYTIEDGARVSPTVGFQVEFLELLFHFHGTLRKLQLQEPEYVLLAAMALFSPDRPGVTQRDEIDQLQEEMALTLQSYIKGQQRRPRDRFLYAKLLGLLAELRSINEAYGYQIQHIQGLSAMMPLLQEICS
- assaySummary: qHTS for Constitutive Androstane Receptor (CAR) Agonist screened against the NCATS CANVASS Library (AID 1347373);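 note: every well also contained 1.5 µM PK11195 alongside the test compound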; note: potency is the fitted concentration of half-maximal effect; for activation: 0% is about no effect
- conditionSet: HepG2-hCAR-CYP2B6 luciferase reporter, ONE-Glo luminescence; series mostly up to 46.1 µM
Results filed as inconclusive are left out. Calls of active or inactive are those of the source. Calls come from the whole dose curve; as a rule, active = well fitted activation curve with a large enough effect; inconclusive = small, poorly fitted or top-dose-only effect; inactive = no such curve, though single readings can be large or run the other way.

# structureSmilesString, Potency
records = [
    ("C/C=C(\\C)C(=O)O[C@@H]1[C@@H](O)[C@@H]2O[C@H]3[C@H](O[C@@H](CCCCC)CCCCCCC(=O)CCC(=O)OC[C@@H](O2)[C@H]1OC(=O)/C=C/c1ccccc1)O[C@H](C)[C@H](OC(C)=O)[C@@H]3O", "inactive"),
    ("CC[C@H]1CN2CCc3c([nH]c4cccc(OC)c34)[C@@H]2C[C@@H]1/C(=C\\OC)C(=O)OC", "inactive"),
    ("CO[C@H]([C@@H](C)[C@H]1O[C@]1(C)C[C@H](C)/C=C/C=C(\\C)[C@H]1O[C@@H](CC(=O)O)CC[C@@H]1C)[C@@H](C)O", "105 nM (active)"),
]

====

- assaySummary: Primary qHTS to identify inhibitors of SARS-CoV-2 cell entry (AID 1645846); note: nearly all actives have a fitted effect of over 45% in size
- conditionSet: SARS-CoV-2 pseudovirus cell entry assay, luminescence; at 57.1 µM (top of the series) unless noted
Records with an inconclusive call do not appear.
observable: activity change, negative = inhibition (%)
Numbers only here, please. The scale is %.

Reference set, count: 6
# compound, unitsSymbol, activity change, negative = inhibition
records = [
    ("NCc1ccccc1CC(=O)N[C@@H]1C(=O)N2C(C(=O)O)=C(CSc3nnnn3CC(=O)O)CS[C@H]12", "%", -25.4),
    ("CO[C@H]1/C=C\\O[C@@]2(C)Oc3c(C)c(O)c4c(O)c(c5c(c4c3C2=O)=NC2(CCN(CC(C)C)CC2)N=5)NC(=O)/C(C)=C\\C=C/[C@H](C)[C@H](O)[C@@H](C)[C@@H](O)[C@@H](C)[C@H](OC(C)=O)[C@@H]1C", "%", -26.3),
    ("CC(=O)OCC1=C(C(=O)O)N2C(=O)[C@@H](NC(=O)[C@H](N)c3ccccc3)[C@H]2SC1", "%", -7.18),
    ("COc1ccc(C[C@H](C)NC[C@@H](O)c2ccc(O)c(NC=O)c2)cc1", "%", -27.6),
    ("CCOC(=N)c1nc2ccc3ncnc(Nc4cc(F)c(F)cc4Cl)c3c2s1", "%", -20.9),
    ("Nc1ccn([C@@H]2C(F)=C(CO)[C@@H](O)[C@H]2O)c(=O)n1", "%", -76.2),
]

Query compound follows.
Would you mind telling me what activity change, negative = inhibition value was observed for `[2H]c1nc(C)nc([2H])c1-c1cc(NC[C@@H](C)c2cccc3c(C(=O)NC)ccnc23)ncn1` ?
0.426

====

- studySystem: Rap guanine nucleotide exchange factor 3 (Homo sapiens)
- assaySummary: Counterscreen qHTS for antagonist of cAMP-regulated guanine nucleotide exchange factor 3 (EPAC1) (AID 1645888);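 note: fluorescence loss as bound BODIPY-GDP is released from Rap1B; % of control where 0% means no effect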
- conditionSet: Rap1B-BODIPY-GDP nucleotide exchange, fluorescence; series mostly up to 154 µM
Inconclusive results are not listed. Calls of active or inactive are those of the source. The call rests on the fitted dose curve; in most records, active means well fitted inhibition curve with a large enough effect; inconclusive means small, poorly fitted or top-dose-only effect; inactive means no such curve, though single readings can be large or run the other way.
observable: activity change, negative = inhibition

Reference set, count: 5
# structureSmilesString, activity change, negative = inhibition
rows = [
    ("Nc1c2c(nc3sc4c(c13)CCCC4)CCCC2", "4.03% [at 30.8 µM] (inactive)"),
    ("O=c1[nH]c(O)c(C=Nc2ccccc2Sc2ccccc2)c(=O)[nH]1", "inactive"),
    ("CN1CC[C@@]2(C)c3cc(O)ccc3N(C)[C@@H]12", "inactive"),
    ("CCOC(=O)c1c(-c2ccccc2)oc2ccc(OC(=O)N(C)C)cc12", "inactive"),
    ("CCCCn1c(O)c(C=NCCN2CCCCC2)c(=O)[nH]c1=O", "inactive"),
]

Return activity change, negative = inhibition measured with Rap guanine nucleotide exchange factor 3 (Homo sapiens) given this compound: `Cc1cc(C=C(C#N)C#N)ccc1N1CCCC1`
inactive

Can you check `O=C1NC(=O)N(Cc2ccco2)C(=O)/C1=C\c1cccn1CCOc1ccc(Cl)cc1` next?
-25.1% [at 30.8 µM] (inactive)

Can you check `COc1cccc(N2C(=O)NC(=O)/C(=C\c3cn(C)c4ccccc34)C2=O)c1` next?
inactive

Can you check `O=C1NC(=S)NC(=O)C1=Cc1cccn1-c1ccc(O)cc1` next?
-4.08% [at 30.8 µM] (inactive)

Can you check `CCOC(=O)[C@]12Cc3cc(C)ccc3[C@H]1N(Cc1ccccc1)C(=O)c1ccccc12` next?
inactive

Can you check `CC(C)C/C(=N/O)c1cn(C)c2ccccc12` next?
inactive
